Experimental protocol: Saturated solubility in solvents and co-solvent mixes at 32° C
Run conditions: 32 °C, organic solvent or mixture, thermodynamic from solid
Assay readout: solubility at 24 h (µg/mL)
// return numeric value only (unit: µg/mL, not printed)

What solubility at 24 h value was documented for this compound, C[C@H]1O[C@@H](O[C@H]2[C@@H](O)C[C@H](O[C@H]3[C@@H](O)C[C@H](O[C@H]4CC[C@@]5(C)[C@H](CC[C@@H]6[C@@H]5C[C@@H](O)[C@]5(C)[C@@H](C7=CC(=O)OC7)CC[C@]65O)C4)O[C@@H]3C)O[C@@H]2C)C[C@H](O)[C@@H]1O ?
6270

---

Tested on: Herpes simplex virus (HSV)
Experimental protocol: HSV virus yield (infectious virus particle production)
Assay type: cell-based
Run conditions: solvent as listed per compound; Torasemide at 90 μg/ml
Assay readout: HSV yield

Item smiles | Reported result
C[C@H]1O[C@@H](O[C@H]2[C@@H](O)C[C@H](O[C@H]3[C@@H](O)C[C@H](O[C@H]4CC[C@@]5(C)[C@H](CC[C@@H]6[C@@H]5CC[C@]5(C)[C@@H](C7=CC(=O)OC7)CC[C@]65O)C4)O[C@@H]3C)O[C@@H]2C)C[C@H](O)[C@@H]1O | HSV yield reduced
C[C@H]1O[C@@H](O[C@H]2[C@@H](O)C[C@H](O[C@H]3[C@@H](O)C[C@H](O[C@H]4CC[C@@]5(C)[C@H](CC[C@@H]6[C@@H]5C[C@@H](O)[C@]5(C)[C@@H](C7=CC(=O)OC7)CC[C@]65O)C4)O[C@@H]3C)O[C@@H]2C)C[C@H](O)[C@@H]1O | HSV yield reduced

---

Experimental protocol: physchem
Run conditions: 32 °C, aqueous with cosolvent or surfactant or cyclodextrin, thermodynamic from solid
Assay readout: solubility at 24 h (µg/mL)
Your answer should be a plain number; it is taken to be in µg/mL.

Name the recorded solubility at 24 h for C[C@H]1O[C@@H](O[C@H]2[C@@H](O)C[C@H](O[C@H]3[C@@H](O)C[C@H](O[C@H]4CC[C@@]5(C)[C@H](CC[C@@H]6[C@@H]5C[C@@H](O)[C@]5(C)[C@@H](C7=CC(=O)OC7)CC[C@]65O)C4)O[C@@H]3C)O[C@@H]2C)C[C@H](O)[C@@H]1O [Digoxin] .
433
